Listed binders paired with reported MFI
Target: T1, human IL-23 (IL-23-His-Biotin, Akesobio, 20161209) (human, UniProt Q9NPF7 20-189; P29460 23-328)
T1 construct: His-tagged and biotinylated; also called human IL23-His-Biotin
T1 sequence (looked up) 1: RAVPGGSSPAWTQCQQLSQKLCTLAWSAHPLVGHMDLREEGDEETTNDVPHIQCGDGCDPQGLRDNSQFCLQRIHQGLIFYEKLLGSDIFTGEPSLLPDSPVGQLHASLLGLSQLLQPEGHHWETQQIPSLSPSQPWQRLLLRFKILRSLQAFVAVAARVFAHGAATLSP
T1 sequence (looked up) 2: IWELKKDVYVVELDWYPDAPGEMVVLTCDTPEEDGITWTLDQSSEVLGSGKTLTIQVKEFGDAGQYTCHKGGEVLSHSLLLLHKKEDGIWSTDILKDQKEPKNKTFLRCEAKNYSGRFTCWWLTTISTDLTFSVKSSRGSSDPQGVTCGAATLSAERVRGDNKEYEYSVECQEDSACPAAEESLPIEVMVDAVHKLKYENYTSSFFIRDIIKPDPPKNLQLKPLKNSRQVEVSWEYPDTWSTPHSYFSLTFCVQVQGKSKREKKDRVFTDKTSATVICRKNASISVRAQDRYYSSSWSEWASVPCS
Assay: FACS competition, IL-23-His-Biotin 2 µg/mL on 293T-IL-12RB1&IL-23R cells, antibody 0.12 µg/mL
Procedure: 2.1. […] 200 μL of 1% PBSA was added into each sample, and the mixture was centrifuged at 700×g for 5 min to discard the supernatant. According to experiment design, correspondingly diluted antibody (highest final concentration of 30 μg/mL, 3-fold dilution, 8 concentrations in total) and human IL-23 (IL-23-His-Biotin, Akesobio, 20161209) (final concentration of 2 μg/mL) were mixed at a ratio of 1:1, and a blank control was set. […]
Reply with just the number.

Binder | MFI
H5L9 (antibody, human IgG1, kappa, V domains shown, Humanized anti-human IL-12/IL-23 p40 antibody; IgG1 (P01857) / kappa (P01834) constant regions) VH: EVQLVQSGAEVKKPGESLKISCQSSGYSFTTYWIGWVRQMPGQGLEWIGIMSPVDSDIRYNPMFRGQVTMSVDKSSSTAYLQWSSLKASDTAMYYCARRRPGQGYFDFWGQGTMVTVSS VL: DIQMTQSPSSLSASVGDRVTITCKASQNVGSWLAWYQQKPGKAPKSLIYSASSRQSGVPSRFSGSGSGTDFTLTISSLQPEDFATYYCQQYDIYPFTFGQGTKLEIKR | 217
H5L14 (antibody, human IgG1, kappa, V domains shown, IgG1/kappa) VH: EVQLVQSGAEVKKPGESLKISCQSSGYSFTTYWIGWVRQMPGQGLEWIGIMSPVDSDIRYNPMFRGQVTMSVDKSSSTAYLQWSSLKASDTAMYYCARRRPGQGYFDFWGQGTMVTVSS VL: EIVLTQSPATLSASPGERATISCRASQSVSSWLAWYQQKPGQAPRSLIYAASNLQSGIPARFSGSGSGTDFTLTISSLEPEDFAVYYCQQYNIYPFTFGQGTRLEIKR | 203

Next binder, please.
# MFI lookup, item H5L10 (antibody, human IgG1, kappa, V domains shown, IgG1/kappa) VH: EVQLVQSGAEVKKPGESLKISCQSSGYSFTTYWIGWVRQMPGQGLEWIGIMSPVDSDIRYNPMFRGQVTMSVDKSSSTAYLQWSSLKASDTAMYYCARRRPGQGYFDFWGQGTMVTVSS VL: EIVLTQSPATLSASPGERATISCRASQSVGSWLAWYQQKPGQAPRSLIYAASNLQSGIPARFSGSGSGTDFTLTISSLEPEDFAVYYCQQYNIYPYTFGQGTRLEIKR 221

Data provenance is patent US20260217813A1.
